The reported measurements were obtained from ChEMBL document CHEMBL1132173.

A collection of compounds and their measured ED50
# Test system: Rattus norvegicus
# Protocol Text: Effective intraperitoneal dose in vivo in rat after 15 mins to induce lower lip retraction
# Assay type: functional
# Experimental Parameters: ip, 0.25 h
Your reply should be a number followed by the unit it is expressed in.

Sample records with ED50:
[[record]]
smiles = "CN(C)c1cccc(CNCC2(F)CCN(C(=O)c3ccc(F)c(Cl)c3)CC2)n1"
measured_endpoint = "ED50"
recorded_value = "0.29 mg/kg"

[[record]]
smiles = "Cc1cc(CNCC2(F)CCN(C(=O)c3ccc(F)c(Cl)c3)CC2)nc(N(C)C)c1"
measured_endpoint = "ED50"
recorded_value = "0.32 mg/kg"

[[record]]
smiles = "Cc1ccc(N(C)C)nc1CNCC1(F)CCN(C(=O)c2ccc(F)c(Cl)c2)CC1"
measured_endpoint = "ED50"
recorded_value = "0.63 mg/kg"

[[record]]
smiles = "O=C(c1ccc(F)c(Cl)c1)N1CCC(F)(CNCc2cccc(-c3ccco3)n2)CC1"
measured_endpoint = "ED50"
recorded_value = "0.08 mg/kg"

[[record]]
smiles = "O=C(c1ccc(Cl)c(Cl)c1)N1CCC(F)(CNCc2cccc(-c3cnco3)n2)CC1"
measured_endpoint = "ED50"
recorded_value = "0.32 mg/kg"

[[record]]
smiles = "O=C(c1ccc(Cl)c(Cl)c1)N1CCC(F)(CNCc2cccc(-c3cc[nH]n3)n2)CC1"
measured_endpoint = "ED50"
recorded_value = "0.32 mg/kg"

[[record]]
smiles = "CCNc1nc(CNCC2(F)CCN(C(=O)c3ccc(F)c(Cl)c3)CC2)ccc1C"
measured_endpoint = "ED50"
recorded_value = "0.08 mg/kg"

[[record]]
smiles = "CCc1ccc(CNCC2(F)CCN(C(=O)c3ccc(F)c(Cl)c3)CC2)nc1"
measured_endpoint = "ED50"
recorded_value = "1.3 mg/kg"

[[record]]
smiles = "CN(C)c1cccc(CNCC2(F)CCN(C(=O)c3cccc(Cl)c3)CC2)n1"
measured_endpoint = "ED50"
recorded_value = "0.08 mg/kg"

[[record]]
smiles = "Cc1ccc(CNCC2(F)CCN(C(=O)c3ccc(F)c(Cl)c3)CC2)nc1N(C)C"
measured_endpoint = "ED50"
recorded_value = "0.04 mg/kg"


Continue with the next compound.
IN: Name the reported ED50 value associated with the compound O=C(c1ccc(Cl)c(Cl)c1)N1CCC(F)(CNCc2cccc(-c3ccco3)n2)CC1
OUT: 0.16 mg/kg
